- measurement-notes: Pharmacokinetics in C57BL/6J mice
- Format: in vivo
- condition-notes: mouse, plasma, iv, 1 mg/kg i.v., read-out: area under the concentration-time curve (AUC)
measure: AUC (µM·h)
State just the number; it will be interpreted in µM·h.

Read the entry Cc1ncsc1-c1ccc([C@H](C)NC(=O)[C@@H]2C[C@@H](O)CN2C(=O)[C@@H](NC(=O)CCCCCCCCCCC(=O)NCCCn2cc(-c3ccc4c(c3)CCN4C(=O)Cc3cccc(OC(F)(F)F)c3)c3c(N)ncnc32)C(C)(C)C)cc1 [LD4172] and write its reported AUC. 0.7

---

- measurement-notes: Pharmacokinetics in C57BL/6J mice
- Format: in vivo
- condition-notes: mouse, plasma, intraperitoneal, i.p. 10 mg/kg vs i.v. 1 mg/kg
- Description: Next, we evaluated the pharmacokinetics (PK) of LD4172 in C57BL/6J (B6) mice (Fig. 4A). Figure 4 LD4172 synergizes with Anti-PD1 to inhibit tumor growth. A, Plasma concentrations of LD4172 in C57BL/6J mice administered 1 mg/kg intravenously (i.v.) or 10 mg/kg intraperitoneally (i.p.) (n=4). […] Data are expressed as the mean ± SEM. * p<0.05; ** p<0.01; *** p<0.001, **** p<0.0001, respectively. ns, indicates no statistical significance.
measure: bioavailability (%)
Reply numerically in %, unit not repeated.

Kindly indicate its recorded bioavailability. Item: Cc1ncsc1-c1ccc([C@H](C)NC(=O)[C@@H]2C[C@@H](O)CN2C(=O)[C@@H](NC(=O)CCCCCCCCCCC(=O)NCCCn2cc(-c3ccc4c(c3)CCN4C(=O)Cc3cccc(OC(F)(F)F)c3)c3c(N)ncnc32)C(C)(C)C)cc1 [LD4172] 39
